targetOrSystem: Platelet-derived growth factor receptor alpha (Homo sapiens) (UniProt P16234)
Sequence (P16234 whole entry): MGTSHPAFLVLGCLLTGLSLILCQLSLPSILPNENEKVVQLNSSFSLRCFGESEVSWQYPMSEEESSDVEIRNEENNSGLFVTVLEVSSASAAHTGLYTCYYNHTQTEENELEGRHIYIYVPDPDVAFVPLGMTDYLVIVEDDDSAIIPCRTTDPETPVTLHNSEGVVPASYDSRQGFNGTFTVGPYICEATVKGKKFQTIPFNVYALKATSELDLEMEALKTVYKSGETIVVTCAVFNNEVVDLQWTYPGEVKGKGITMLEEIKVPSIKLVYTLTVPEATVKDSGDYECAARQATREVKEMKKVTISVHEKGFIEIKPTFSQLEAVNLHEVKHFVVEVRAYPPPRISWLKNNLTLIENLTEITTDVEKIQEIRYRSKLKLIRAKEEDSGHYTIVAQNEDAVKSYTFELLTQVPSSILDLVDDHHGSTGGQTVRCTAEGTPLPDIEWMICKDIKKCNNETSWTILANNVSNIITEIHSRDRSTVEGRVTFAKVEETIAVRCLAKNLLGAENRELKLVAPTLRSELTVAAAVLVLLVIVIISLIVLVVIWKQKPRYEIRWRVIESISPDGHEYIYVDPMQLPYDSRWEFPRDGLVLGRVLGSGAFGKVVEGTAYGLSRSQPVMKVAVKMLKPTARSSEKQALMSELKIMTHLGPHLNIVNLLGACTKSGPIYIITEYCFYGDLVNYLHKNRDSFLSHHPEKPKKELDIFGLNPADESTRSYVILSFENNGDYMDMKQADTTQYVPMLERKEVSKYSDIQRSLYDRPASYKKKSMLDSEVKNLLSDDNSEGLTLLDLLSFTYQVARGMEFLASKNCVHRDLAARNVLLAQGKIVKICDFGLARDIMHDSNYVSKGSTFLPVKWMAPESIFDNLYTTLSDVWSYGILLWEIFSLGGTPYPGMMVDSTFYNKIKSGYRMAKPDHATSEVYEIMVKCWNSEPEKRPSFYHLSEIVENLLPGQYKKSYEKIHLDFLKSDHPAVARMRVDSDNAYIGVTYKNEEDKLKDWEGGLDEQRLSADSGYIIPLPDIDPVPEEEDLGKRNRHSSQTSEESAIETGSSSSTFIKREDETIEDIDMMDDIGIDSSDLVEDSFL
assayComment: Inhibition of PDGFRA at 10 uM after 60 mins by TR-FRET assay
Let's look at some compounds and their measured inhibition.
Give the figure together with its unit, number first.

>  <compound>
O=c1n(Cc2ccccn2)nc(-c2ccnc(NC3CCOCC3)c2)n1-c1ccc2ccccc2c1

>  <endpointLabel>
inhibition

>  <result>
-10%

$$$$
>  <compound>
O=c1[nH]nc(-c2ccnc(NC3CCCCC3)c2)n1-c1ccc2ccccc2c1

>  <endpointLabel>
inhibition

>  <result>
1%

$$$$
>  <compound>
O=c1n(C2CCOCC2)nc(-c2ccnc(NC3CCCCC3)c2)n1-c1ccc2ccccc2c1

>  <endpointLabel>
inhibition

>  <result>
7%

$$$$
>  <compound>
O=c1[nH]nc(-c2ccnc(NC3CCCOC3)c2)n1-c1ccc2ccccc2c1 (stereo unspecified)

>  <endpointLabel>
inhibition

>  <result>
12%

$$$$
>  <compound>
O=c1[nH]nc(-c2ccnc(NC3CCOCC3)c2)n1-c1ccc2ccccc2c1

>  <endpointLabel>
inhibition

>  <result>
1%

$$$$

Now look at this entry.
Specify inhibition for O=c1n(Cc2ccncc2)nc(-c2ccnc(NC3CCCCC3)c2)n1-c1ccc2ccccc2c1 and stop. 1%

---

targetOrSystem: Tyrosine-protein kinase ABL1 (Homo sapiens)
assayComment: Inhibition of ABL1 at 10 uM after 60 mins by TR-FRET assay
endpointLabel: inhibition (%)
Answer in %, number only, no unit symbol.

Respond only with inhibition recorded for O=c1n(Cc2ccncc2)nc(-c2ccnc(NC3CCCCC3)c2)n1-c1ccc2ccccc2c1 -2

Provide one value: measured inhibition of O=c1n(Cc2ccccn2)nc(-c2ccnc(NC3CCOCC3)c2)n1-c1ccc2ccccc2c1 1

Answer with the recorded inhibition of O=c1[nH]nc(-c2ccnc(NC3CCCOC3)c2)n1-c1ccc2ccccc2c1 (stereo unspecified) only. 17

Note down inhibition recorded for O=c1n(C2CCOCC2)nc(-c2ccnc(NC3CCCCC3)c2)n1-c1ccc2ccccc2c1 5

Assign inhibition to the following record: O=c1[nH]nc(-c2ccnc(NC3CCCCC3)c2)n1-c1ccc2ccccc2c1 4

// fetch inhibition given entry O=c1[nH]nc(-c2ccnc(NC3CCOCC3)c2)n1-c1ccc2ccccc2c1 5

---

targetOrSystem: Receptor-type tyrosine-protein kinase FLT3 (Homo sapiens) (UniProt P36888)
Sequence (P36888 whole entry): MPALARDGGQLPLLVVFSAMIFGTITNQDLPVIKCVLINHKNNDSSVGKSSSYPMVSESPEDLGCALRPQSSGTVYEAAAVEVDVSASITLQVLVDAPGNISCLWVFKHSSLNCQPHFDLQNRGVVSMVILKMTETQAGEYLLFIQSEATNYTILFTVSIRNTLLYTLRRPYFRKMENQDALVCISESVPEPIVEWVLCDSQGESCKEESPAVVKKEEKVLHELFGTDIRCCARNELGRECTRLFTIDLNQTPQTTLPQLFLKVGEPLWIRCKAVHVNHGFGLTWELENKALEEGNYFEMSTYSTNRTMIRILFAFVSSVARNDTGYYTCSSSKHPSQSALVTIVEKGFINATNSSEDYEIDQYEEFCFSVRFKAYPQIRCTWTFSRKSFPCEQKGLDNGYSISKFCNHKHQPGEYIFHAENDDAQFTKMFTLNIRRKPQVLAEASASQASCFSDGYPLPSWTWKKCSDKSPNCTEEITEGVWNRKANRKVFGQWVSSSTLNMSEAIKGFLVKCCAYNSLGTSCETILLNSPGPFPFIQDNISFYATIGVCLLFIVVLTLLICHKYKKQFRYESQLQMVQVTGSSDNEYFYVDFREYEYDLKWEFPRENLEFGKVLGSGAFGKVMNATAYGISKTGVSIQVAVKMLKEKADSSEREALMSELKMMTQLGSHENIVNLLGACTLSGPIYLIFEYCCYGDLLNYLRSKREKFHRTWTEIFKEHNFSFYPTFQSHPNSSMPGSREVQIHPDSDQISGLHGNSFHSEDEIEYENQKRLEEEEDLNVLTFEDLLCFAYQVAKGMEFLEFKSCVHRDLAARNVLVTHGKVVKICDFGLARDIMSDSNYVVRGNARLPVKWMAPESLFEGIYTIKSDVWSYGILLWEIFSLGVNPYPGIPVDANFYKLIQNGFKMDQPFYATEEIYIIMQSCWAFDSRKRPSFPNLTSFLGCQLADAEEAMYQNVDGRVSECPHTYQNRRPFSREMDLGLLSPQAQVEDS
assayComment: Inhibition of FLT3 at 10 uM after 60 mins by TR-FRET assay
Use 20% as the dividing line for inhibition, with the line itself on the criterion met side and lower values as criterion not met.

// below: answered compounds
>  <compound>
O=c1[nH]nc(-c2ccnc(NC3CCCCC3)c2)n1-c1ccc2ccccc2c1

>  <targetOrSystem>
Receptor-type tyrosine-protein kinase FLT3 (Homo sapiens) (UniProt P36888)

>  <groupLabel>
criterion not met

$$$$
>  <compound>
O=c1[nH]nc(-c2ccnc(NC3CCOCC3)c2)n1-c1ccc2ccccc2c1

>  <targetOrSystem>
Receptor-type tyrosine-protein kinase FLT3 (Homo sapiens) (UniProt P36888)

>  <groupLabel>
criterion met

$$$$
>  <compound>
O=c1n(C2CCOCC2)nc(-c2ccnc(NC3CCCCC3)c2)n1-c1ccc2ccccc2c1

>  <targetOrSystem>
Receptor-type tyrosine-protein kinase FLT3 (Homo sapiens) (UniProt P36888)

>  <groupLabel>
criterion not met

$$$$
>  <compound>
O=c1n(Cc2ccccn2)nc(-c2ccnc(NC3CCOCC3)c2)n1-c1ccc2ccccc2c1

>  <targetOrSystem>
Receptor-type tyrosine-protein kinase FLT3 (Homo sapiens) (UniProt P36888)

>  <groupLabel>
criterion not met

$$$$

Exam item: decide whether the reported inhibition for O=c1[nH]nc(-c2ccnc(NC3CCCOC3)c2)n1-c1ccc2ccccc2c1 (stereo unspecified) is at least 20%. criterion met
